Tested on: MS2 coat protein
Experiment Notes: apparent KD of MS2 coat protein; designed switch direction (-1 OFF switch, 1 ON switch): -1; higher = weaker reporter binding
Condition Summary: Eterna round: R95; input ligand: none
The label depends only on apparent KD of MS2 coat protein: Satisfied if it is at least 70 nM, Not satisfied if it is smaller.

Example results:
UUUAAUUUUUUUUUUUUACAAGCUUUUUGCUCGUCUUAUACAUGAGGAUCACCCAUGUAGGUGGAGGGUAAAUUAUC [JMF 90] (puzzle: Sensor v3, turn-off variant 2) : Not satisfied
GGUUGGCGAGGAUAUACAUGAGGAUCACCCAUGUGAGAGAAAAAAGUGAGAACGAAAAGUAGAAGGCGCUGACG [salish99_ex3_r3_057] (puzzle: Exclusion 3) : Satisfied
GGUACUAACAGCUGACUGUUAGUACUGUAGGUUUGUGUUACAUGAGGAUCACCCAUGUCCUCAUAAGCUCGUCUUGU [JL-sv3-2.23 mat747 mod] (puzzle: Sensor v3, turn-off variant 2) : Satisfied
AAUAGCAAGUAAGAUCCUAACAUGAGGAUCACCCAUGUGCUCGUCUUAUAAAGUACUAUCACGAAAGUGAUAGUACA [Sensor 3, v1 - 47] (puzzle: Sensor v3, turn-off variant 1) : Satisfied

Could you now consider this next sequence?
Exam item: Confirm if apparent KD of MS2 coat protein reported for the sequence UUACCAUGCCGCCUAAUAGCUUUUUGCUCGUCUUAUAUUACAUGAGGAUCACCCAUGUAAAACAUGUGGCGUGACCU [JL ViennaUCT Maridi mod 1] (puzzle: Sensor v3, turn-off variant 2) is 70 nM or above.
Marked response: Satisfied

These entries and their values trace back to the supplement of paper PMC9170038.
